test system: U2OS BAX/BAK1 DKO; experiment: maximum observed lethal fraction; higher = more cell death; settings: 1 µM;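 further: FLICK assay: SYTOX Green fluorescence of dead cells tracked over time after drugging in 96-well plates, with total cell counts taken from Triton X-100 lysed wells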
Tick Condition met if maximum observed lethal fraction is 0.09 or greater. Tick Condition not met if maximum observed lethal fraction is less than 0.09.

Use these answered entries as a reference point.
* CC(=O)[C@]1(O)Cc2c(O)c3c(c(O)c2[C@@H](O[C@H]2C[C@H](N)[C@H](O)[C@H](C)O2)C1)C(=O)c1ccccc1C3=O | Condition met
* CC[C@@]1(O)C(=O)OCc2c1cc1n(c2=O)Cc2cc3ccccc3nc2-1 | Condition not met
* CN[C@@H]1C[C@H]2O[C@@](C)([C@@H]1OC)n1c3ccccc3c3c4c(c5c6ccccc6n2c5c31)C(=O)NC4 | Condition met

# ---- query compound ----
*Q* Quick check, maximum observed lethal fraction >= 0.09? CN(C)C(=O)c1cc2cnc(Nc3ccc(N4CCNCC4)cn3)nc2n1C1CCCC1
*A* Condition not met
